Target: T1, Recombinant human CD4 (R&D Systems, Cat. 10327-CD) (human, UniProt P01730 26-390, limits assumed)
T1 construct: Bought protein; also called huCD4
Assay: BLI (Octet Red384), purified antibody on anti-mouse Fc sensors, human CD4 100/50/25 nM, global 1:1 fit;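 also: antibodies loaded at 10 µg/mL, curves fitted across association and dissociation phases, with an unrelated mouse-derived antibody serving as internal reference control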
Here the recorded Kd is given for each entry.
Numeric only. Scale: µM

{"Binder": "75110_12H19A (antibody, V domains shown, Tested as antibody purified from AlivaMab Mouse Kappa hybridoma (human V regions, kappa light chain, mouse Fc captured by anti-mouse Fc sensors)) VH: EVQLVESGGGLVQPGGSLRLSCAASGFTFSSYWMSWVRQAPGQGLEWVANINEDGNEKYHVDSVKGRLTISRDNAKNSLYLQMNSLRGVDTAVYFCAREGGQWLALDYWGQGALVTVSS VL: DIQMTQSPSSVSASVGDRVSITCRASQGISSWLAWYQQKPGKAPKLLIYGASGLQSGVPSRFSGSGSGTDFTLTISSLQPEDFATYYCQQANSFPWTFGQGTKVEIK", "Display Unit": "µM", "Number": 0.013}
{"Binder": "75110_09G15A (antibody, V domains shown, Tested as antibody purified from AlivaMab Mouse Kappa hybridoma (human V regions, kappa light chain, mouse Fc captured by anti-mouse Fc sensors)) VH: EVQLVESGGGLVQPGGSLRLSCAASGFTFSDYWMSWVRQAPGKGLEWVANINQDGSEKYSVDSVKGRFTISRDNAKNSLYLQMNSLRAEDTAIFYCAREGGQWLALDYWGQGTLVTVSS VL: DIQMTQSPSSVSASVGDRVTITCRASQGISSWLAWYQQKPGKAPKLLIYGASSLQSGVPSRFSGSGSGTDFTLTINSLQPEDFTTYYCQQANIFPWTFGQGTKVEIK", "Display Unit": "µM", "Number": 0.048}
{"Binder": "75110_13C13A (antibody, V domains shown, Tested as antibody purified from AlivaMab Mouse Kappa hybridoma (human V regions, kappa light chain, mouse Fc captured by anti-mouse Fc sensors)) VH: QVQLQQWGAGLLKPSETLSLTCAVSGGSFSGYYWSWIRQPPGKGLEWIGEINHSGSTNCNPSLKSRVTISVDTSKNQFSLKLSSVTAADTAMYYCARVLNFFDYWGQGTLVTVSS VL: DIQMTQTPSSVSASVGDRVTITCRASPGISNWLAWYQQKPGKAPELLIYAASSLQSGVPSRFSGSGSGTDFTLTISSLQPEDFATYFCQQANSFPLTFGGGTKVESK", "Display Unit": "µM", "Number": 0.011}
{"Binder": "75110_06D16A (antibody, V domains shown, Tested as antibody purified from AlivaMab Mouse Kappa hybridoma (human V regions, kappa light chain, mouse Fc captured by anti-mouse Fc sensors)) VH: QVQLQQWGAGLLKPSETLSLTCAVYGGSFSGYYWSWIRQPPGKGLEWIGEINHSGSTNYNPSLKSRVTISVVTSKNQFSLKLSSVTAADTAVYYCARVLNWFDPWGQGTLVTVSS VL: DIQMTQSPSSVSASVGDRVTITCRASQDIADWLAWYQQKPGKAPKLLIYAASSFQSGVPSRFSGSGSGTDFTLTISSLQPEDFATYFCQQANSFPYTFGQGTKLEIK", "Display Unit": "µM", "Number": 0.0028}

// below: Kd requested for another binder
Input line: Would you kindly share the measured Kd for 75110_08G08A (antibody, V domains shown, Tested as antibody purified from AlivaMab Mouse Kappa hybridoma (human V regions, kappa light chain, mouse Fc captured by anti-mouse Fc sensors)) VH: QVQLQESGPGLVKPSETLSLTCSVSGGSISTYYWSWIRQPAGKGLEWIGRICTTENTNYNPSLKSRVTMSIDSSKNQFSLKLSSVTAADTAVYYCARDLERLNYYGMDVWGQGATVTVSS VL: DIQMTQSPSSLSASVGDRVTITCQASQDISNYLNWYQQKPGIAPKLLIYDASNLETGVPSRFSGSGSGTDFTFTISSLQPEDIATYYCQQYDSLPITFGQGTRLEIK ?
Output line: 0.02
